System: HeLa
assay: Cytotoxicity against human HeLa cells expressing alkaline phosphatase assessed as reduction in cell viability at 40 uM incubated for 3 hrs by WST-1 assay
Format: cell-based
measured_property: Activity

Examples from the recorded data:
{"columns": ["compound", "assay_value"],
 "data": [
  ["COc1ccc2[nH]cc(C(c3c[nH]c4ccccc34)C(F)(F)F)c2c1 (configuration not stated)", "Non-Toxic"],
  ["Fc1ccc2[nH]cc(C(c3c[nH]c4ccccc34)C(F)(F)F)c2c1 (configuration not stated)", "Non-Toxic"],
  ["FC(F)(F)C(c1c[nH]c2ccccc12)c1c[nH]c2ccc(Br)cc12 (configuration not stated)", "Non-Toxic"],
  ["FC(F)(F)C(c1c[nH]c2ccc(Br)cc12)c1c[nH]c2ccc(Br)cc12", "Non-Toxic"],
  ["FC(F)(F)C(F)(F)C(c1c[nH]c2ccc(Br)cc12)c1c[nH]c2ccc(Br)cc12", "Non-Toxic"],
  ["FC(F)(F)C(F)(F)C(c1c[nH]c2ccccc12)c1c[nH]c2ccccc12", "Non-Toxic"],
  ["Cn1cc(C(c2c[nH]c3ccccc23)C(F)(F)C(F)(F)F)c2ccccc21 (configuration not stated)", "Non-Toxic"],
  ["FC(F)(F)C(c1c[nH]c2ccccc12)c1c[nH]c2ccccc12", "Non-Toxic"]
]}

Go through the items and report each one's Activity.
1. Cn1cc(C(c2cn(C)c3ccccc23)C(F)(F)C(F)(F)F)c2ccccc21
2. Cn1cc(C(c2c[nH]c3ccccc23)C(F)(F)F)c2ccccc21 (configuration not stated)
3. Fc1ccc2[nH]cc(C(c3c[nH]c4ccc(F)cc34)C(F)(F)F)c2c1
4. Cn1cc(C(c2cn(C)c3ccccc23)C(F)(F)F)c2ccccc21

1: Non-Toxic; 2: Non-Toxic; 3: Non-Toxic; 4: Non-Toxic

The origin of these recorded values is ChEMBL document CHEMBL4364333.
